Test system: T-47D breast
Experiment: NCI tumour cell line growth inhibition, 48 h
Form field: TGI (one value per entry).
measured.quantity: TGI

compound=COc1cc2c(/C=C3/C(=O)Nc4ccc(O)cc43)c(Cl)[nH]c2cc1C readout_value="7.85 µM"
compound=CCOC(=O)c1sc2nc(SC)nc(N3CCCCC3)c2c1N readout_value="> 100 µM"
compound=CC1=C(C(=O)NNC(=O)c2ccccc2)CC(C(=O)NNC(=O)c2ccccc2)=C(C)N1 readout_value="> 100 µM"
compound=OCC#Cc1ccccc1C#CCCCCCCC#Cc1ccccc1C#CCO readout_value="33.7 µM"
compound="CC1CC2=C(C1)C(C1(C)C(=O)CC3C(C1=O)C3(C)C)C(C)C2=O (configuration not stated)" readout_value="> 100 µM"
compound=Cn1c2c(c3ccc(-c4ccn[nH]4)cc3c1=O)C(=O)c1ccccc1-2 readout_value="> 100 µM"
compound="COc1ccc2c(c1)OCC1c3cc(O)ccc3OC21 (configuration not stated)" readout_value="65.4 µM"

###

Form field: TGI (one value per entry).
System: NCI-H23 lung
Assay: NCI tumour cell line growth inhibition, 48 h
measured.quantity: TGI

compound="CC1CN=C(N(C(=O)Nc2ccccc2)c2ccccc2)S1 (centres undefined)" readout_value="> 100 µM"
compound=Cc1cccc(-c2nnc3s/c(=C\c4ccc5c(c4)OCO5)c(=O)n23)c1 readout_value="> 100 µM"
compound="COC(=O)C1CCC(NC(=O)c2csc([C@@H](C[C@H](C(C)C)N(C)C(=O)[C@@H](NC(=O)[C@H]3CCCCN3C)C(C)C)OC(C)=O)n2)CC1 (some centres undefined)" readout_value="> 33.3 µM"
compound=CC1=C(C)C(=O)C2=C(OCCO2)C1=O readout_value="48 µM"
compound="CC1=CCCC(C)(O)C2CC(CCC3(C)OC3CC1)C(C)C(=O)O2 (centres undefined)" readout_value="> 100 µM"
compound=N#Cc1c(-c2ccc(Cl)cc2)cc(-c2ccc(Nc3ccnc4cc(C(F)(F)F)ccc34)cc2)nc1N readout_value="> 100 µM"
compound=CCCc1cc2c(cc1O)CC[C@@H]1[C@@H]2CC[C@]2(C)[C@@H](O)CC[C@@H]12 readout_value="29.2 µM"
compound=COC(=O)c1nn(-c2ccccc2)c(=O)cc1N=[N+]=[N-] readout_value="> 100 µM"
compound=COc1ccc2nc(C)cc(NCCCCCCCCCNc3cc(C)nc4ccc(OC)cc34)c2c1 readout_value="6.89 µM"

###

System: IGROV1 ovarian
Assay: NCI tumour cell line growth inhibition, 48 h
Form field: TGI (one value per entry).
measured.quantity: TGI

molecule=O=c1n(N=S(=O)(c2ccccc2)c2ccccc2)c(=O)n2n1C1C=CC2CC1 readout_value="> 100 µM"
molecule=O=C(Nc1nc2ncn(CCNCCn3cnc4nc(NC(=O)c5ccccc5)[nH]c(=O)c43)c2c(=O)[nH]1)c1ccccc1 readout_value="> 100 µM"
molecule=CN(CC(=O)O)S(=O)(=O)c1ccc(F)cc1 readout_value="> 100 µM"
molecule=COc1ccc(C(=O)N/N=C2\C(=O)c3c(C)cc(C)cc3CC2(C)C)cc1 readout_value="41.5 µM"
molecule=Cc1ccccc1C1=C/C(=C(\SS/C(C(=O)c2ccc(OCC(=O)O)c(Cl)c2Cl)=C2\C=C(c3ccccc3C)SS2)C(=O)c2ccc(OCC(=O)O)c(Cl)c2Cl)SS1 readout_value="38.5 µM"
molecule=COC1=CC(=C(C#N)C(=Nc2ccccc2)SC)C=C(OC)C1=O readout_value="> 100 µM"
molecule=O=C(O)c1c(-c2ccccc2)c(=O)[nH]c2ccccc12 readout_value="> 100 µM"
molecule="CCOc1ccc(NC(=O)C(=O)C2C(=O)Nc3ccccc3S2=O)cc1 (stereo unspecified)" readout_value="> 100 µM"
molecule=COP(=O)(OC)C(C)(C)NC(=O)NC(F)(F)F readout_value="> 100 µM"
molecule="C=C(CN(C)C)C(=O)c1ccc(OC2OC(COC(C)=O)C(OC(C)=O)C(OC(C)=O)C2OC(C)=O)cc1 (stereo unspecified)" readout_value="36.1 µM"
molecule=[Co+2].[O-]c1ccccc1C=NCc1ccccc1.[O-]c1ccccc1C=NCc1ccccc1 readout_value="> 100 µM"
molecule="CC1(C)COC2(OC1)C1=NS(=O)(=O)CC13CCC2C3(C)C (stereo unspecified)" readout_value="> 100 µM"
molecule=CNN1C(=O)c2c(N)c(C#N)c(-c3ccccc3)c(-c3ccccc3)c2C1=O readout_value="> 100 µM"
molecule=CC(=O)N(C)c1ccc2ncccc2c1[N+](=O)[O-] readout_value="> 100 µM"
molecule="CN1C(=O)N(C)C2C1NN=c1s/c(=C\\c3ccccc3F)c(=O)n12 (stereo unspecified)" readout_value="> 100 µM"
molecule=CC(C)(OCc1ccccc1)c1ccccc1P(c1ccccc1)c1ccccc1 readout_value="> 100 µM"
molecule="O=C1c2ccccc2C2=Cc3ccccc3C(O)N12 (stereo unspecified)" readout_value="> 100 µM"
molecule=Cc1ccc(NCCN2CCCCC2)c2c(=O)c3ccccc3sc12 readout_value="4.3 µM"
molecule=O=c1c2c3c(sc2nc(CN2CCNCC2)n1-c1ccccc1)CCCC3 readout_value="> 100 µM"
molecule="CC(=O)N1N=C(c2cc(C)ccc2O)CC1c1cccc(Cl)c1 (stereo unspecified)" readout_value="8.45 µM"
molecule=COc1cc(-c2cc(/C=C/C(=O)c3ccc(N)cc3)[nH]n2)cc(OC)c1OC readout_value="10.5 µM"
